Molecular target: mGlu7 (Rattus norvegicus, UniProt P35400)
Construct: expressed in transfected cells; host or cells: HEK293 (transient, electroporation)
Sequence (P35400 35-915): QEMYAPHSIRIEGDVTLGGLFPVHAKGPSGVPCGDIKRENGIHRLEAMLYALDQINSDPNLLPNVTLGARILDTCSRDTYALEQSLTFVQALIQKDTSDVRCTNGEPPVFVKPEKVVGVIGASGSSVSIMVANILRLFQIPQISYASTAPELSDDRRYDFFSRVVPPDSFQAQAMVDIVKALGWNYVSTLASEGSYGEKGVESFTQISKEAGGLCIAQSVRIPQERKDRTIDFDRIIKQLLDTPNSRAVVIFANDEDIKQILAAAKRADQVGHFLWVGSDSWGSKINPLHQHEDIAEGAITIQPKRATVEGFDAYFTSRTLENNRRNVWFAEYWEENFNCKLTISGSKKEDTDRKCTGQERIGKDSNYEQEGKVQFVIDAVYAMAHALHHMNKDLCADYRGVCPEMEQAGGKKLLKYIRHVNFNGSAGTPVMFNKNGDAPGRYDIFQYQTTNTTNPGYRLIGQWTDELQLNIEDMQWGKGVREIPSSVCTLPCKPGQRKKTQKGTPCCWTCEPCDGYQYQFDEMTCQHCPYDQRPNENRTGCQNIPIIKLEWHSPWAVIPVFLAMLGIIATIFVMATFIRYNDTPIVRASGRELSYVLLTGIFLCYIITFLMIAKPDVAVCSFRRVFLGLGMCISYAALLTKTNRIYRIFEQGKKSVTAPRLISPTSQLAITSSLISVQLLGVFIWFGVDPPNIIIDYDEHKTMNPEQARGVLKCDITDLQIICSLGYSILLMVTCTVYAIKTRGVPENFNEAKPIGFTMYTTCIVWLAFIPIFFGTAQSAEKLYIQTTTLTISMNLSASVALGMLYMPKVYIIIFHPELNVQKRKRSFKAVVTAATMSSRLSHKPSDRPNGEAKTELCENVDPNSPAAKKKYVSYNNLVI
Assay: Inositol phosphate production in transfected HEK293 cells, mGlu7
Assay type: cell-based
Details: agonist activity, IP production, HEK-293, mean ± SEM (n)
recorded_metric: EC50 (µM)

| molecule | measured_result |
| --- | --- |
| N[C@@H](CCP(=O)(O)O)C(=O)O [L-AP4, L(+)-2-Amino-4-phosphonobutyric Acid] | 440 |

====

Target: mGlu4 (Rattus norvegicus, UniProt P31423)
Construct: expressed in transfected cells; host or cells: HEK293 (transient, electroporation)
Sequence (P31423 33-912): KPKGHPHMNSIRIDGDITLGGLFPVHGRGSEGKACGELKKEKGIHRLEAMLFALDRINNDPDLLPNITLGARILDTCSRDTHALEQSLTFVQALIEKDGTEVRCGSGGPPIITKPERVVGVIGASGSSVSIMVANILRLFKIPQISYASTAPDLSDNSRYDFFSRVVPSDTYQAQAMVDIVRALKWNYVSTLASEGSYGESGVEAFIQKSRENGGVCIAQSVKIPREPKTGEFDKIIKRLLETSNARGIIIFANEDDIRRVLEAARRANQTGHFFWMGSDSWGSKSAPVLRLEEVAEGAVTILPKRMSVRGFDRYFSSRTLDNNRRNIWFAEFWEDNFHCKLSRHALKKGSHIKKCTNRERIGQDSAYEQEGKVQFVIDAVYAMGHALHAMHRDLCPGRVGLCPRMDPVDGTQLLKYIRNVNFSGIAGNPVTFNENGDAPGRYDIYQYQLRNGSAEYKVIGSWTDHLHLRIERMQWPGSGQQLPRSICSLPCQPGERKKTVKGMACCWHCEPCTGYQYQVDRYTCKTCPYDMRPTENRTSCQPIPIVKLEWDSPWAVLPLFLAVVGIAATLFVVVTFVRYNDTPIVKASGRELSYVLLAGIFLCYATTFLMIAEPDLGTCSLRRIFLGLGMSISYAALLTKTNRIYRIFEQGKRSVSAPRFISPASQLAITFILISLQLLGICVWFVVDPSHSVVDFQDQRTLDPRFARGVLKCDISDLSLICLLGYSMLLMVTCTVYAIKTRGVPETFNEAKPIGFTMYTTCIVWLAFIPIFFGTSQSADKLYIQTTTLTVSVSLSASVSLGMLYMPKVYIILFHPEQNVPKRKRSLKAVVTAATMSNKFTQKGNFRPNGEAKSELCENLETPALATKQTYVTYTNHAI
Format: cell-based
Settings: agonist activity, IP production, HEK-293, mean ± SEM (n)

| compound | target_entity | EC50 (nM) |
| --- | --- | --- |
| N[C@@H](CCP(=O)(O)O)C(=O)O [L-AP4, L(+)-2-Amino-4-phosphonobutyric Acid] | mGlu4 (Rattus norvegicus, UniProt P31423) | 80 |
